# Assayed system: E3 ubiquitin-protein ligase XIAP (Homo sapiens)
# Method description: small molecules binding XIAP protein – biophysical, small-molecule microarray, fluorescence 635 nm, primary screen (AID 1181);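 further: score merges 667 nm emission and signal to noise over triplicate slides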
# Condition info: higher = more signal

# Compound, composite z-score
measured = [
    ("O=C1C=C(c2ccccc2)C(=O)C2=C1CC([C@H]1Oc3ccccc3S(=O)(=O)N3CCC[C@@H]13)=CC2", -0.127),
    ("Cc1ccccc1C(O)C1C=CC2C(=O)N(c3ccccc3)C(=O)C2N1Nc1ccccc1 (configuration not stated)", 0.265),
    ("C[C@@H]1ON(c2ccccc2)[C@H](c2ccccc2)[C@H]1C(=O)O", -0.0343),
    ("COC(=O)[C@@]1(Cc2ccc(F)cc2)[C@H]2c3cc(C(=O)N(C)C)n(C)c3C[C@H]2CN1C(=O)c1ccccc1", 0.147),
    ("COc1ccc(C(O)C2C=CC3C(=O)N(c4ccccc4)C(=O)C3N2Nc2ccc(C#N)cc2)cc1OCc1ccccc1 (configuration not stated)", 0.44),
    ("C=CCC(OC(C)=O)[C@@H]1[C@@H](N(Cc2cc3ccccc3o2)C(=O)c2cccc3ccccc23)c2cc(OCCCO)ccc2N1C(=O)c1ccc2ccccc2n1 (some centres not stated)", -0.393),
    ("COCCOC(=O)N1C(=O)[C@@]2(c3cc(C#CCC(C(=O)OC)C(=O)OC)ccc31)[C@H](C(=O)Nc1nc3ccccc3s1)[C@H]1C(=O)O[C@H](c3ccccc3)[C@H](c3ccccc3)N1[C@@H]2c1ccc(OCCO)cc1", 0.214),
]

###

# Tested on: XIP peptide (Xip251-270) binding
# Method description: XIP fragment 251-270 binding compounds – biochemical, small-molecule microarray, fluorescence 635/667 nm, 0.1 µg/mL protein, primary screen (AID 1182)
# Condition info: fluorescent protein binding, 635 nm, higher = more signal, called active from +8 up or from −8 down
Threshold check on composite z-score: at or above 0.4 gives label 1, strictly below gives label 0.

# Compound, Label
data = [
    ("Cc1ccc(S[C@]2(C(=O)NC3CC3)CC(=O)N(C(C)C)[C@@H]2c2ccc(CO)cc2I)cc1", "label 1"),
    ("C=CCNC(=O)[C@@H]1[C@H]2C(=O)O[C@H](c3ccccc3)[C@H](c3ccccc3)N2[C@H](c2ccc(OCCO)cc2)[C@@]12C(=O)Nc1ccc(C#CC3(O)CCCCCC3)cc12", "label 1"),
    ("O=C(NC1CC1)[C@@H]1c2ccccc2C(=O)N(CC23CC4CC(CC(C4)C2)C3)[C@H]1c1ccc(CO)cc1", "label 0"),
    ("COC(=O)[C@@]1(Cc2ccc(F)cc2)[C@H]2c3cc(C(=O)N4CCCC4)n(Cc4ccccn4)c3C[C@H]2CN1C(=O)c1ccccc1", "label 0"),
    ("CC(C)=CCCC(C)=CC(O)C1C=CC2C(=O)NC(=O)C2N1Nc1ccccn1 (configuration not stated)", "label 0"),
    ("COC(=O)C1=CC(CCCO)=CC(c2cccs2)N(Cc2cc3c(cc2Br)OCO3)C=C1C(=O)OC (configuration not stated)", "label 1"),
    ("COC(=O)[C@@]1(Cc2ccccc2)[C@H]2c3cc(C(=O)N(C)C)n(Cc4ccc(S(C)(=O)=O)cc4)c3C[C@H]2CN1C(=O)c1ccccc1", "label 1"),
    ("C=CC1c2cc(O)c(OC)cc2CCN1C (configuration not stated)", "label 1"),
    ("NC(=O)N1C(=O)C2C(C1=O)C1C=C(CCCO)C2C(C2CC2)N1Cc1sc2ccccc2c1Cl (configuration not stated)", "label 1"),
    ("O=C(NCc1ccccc1)[C@@H]1c2ccccc2C(=O)N(Cc2cc(C(F)(F)F)cc(C(F)(F)F)c2)[C@H]1c1ccc(CO)cc1", "label 1"),
    ("O=C1O[C@H](c2ccccc2)[C@H](c2ccccc2)N2[C@H]1[C@@H](C(=O)N1CCN(c3ncccn3)CC1)[C@]1(C(=O)Nc3ccc(C#CCCO)cc31)[C@H]2c1ccc(O)cc1", "label 0"),
    ("O=C1OCCC=C[C@H]2OC34C=CCN(c5ccc6ccccc6c5)C(=O)[C@H]3N(CCO)C(=O)[C@@H]4C12 (some centres not stated)", "label 0"),
    ("C=C(CCCC)/C(=C/C[C@H](OC(=O)c1ccncc1)c1cccc(OCCO)c1)c1cnc2ccccc2c1", "label 1"),
    ("C=CCC(OC(C)=O)[C@@H]1[C@@H](N(Cc2cccc3ccccc23)C(=O)Cc2ccc(OC)cc2)c2cc(OCCCO)ccc2N1C(=O)c1ccc2ccccc2c1 (some centres not stated)", "label 0"),
    ("COc1ccc([Si](C)(C)[C@@H]2[C@@H](CC(=O)N3Cc4ccccc4C[C@H]3CO)O[C@]3(C(=O)N(Cc4cccc(N5CCOC5=O)c4)c4ccccc43)[C@H]2C)cc1", "label 0"),
    ("CC(=O)OCC1C2CC[C@H]3C(OCc4ccc(F)cc4C(F)(F)F)OC[C@]4(C)[C@H]3C2=C(CN4C(=O)OC(C)(C)C)[C@H](C)C1COC(C)=O (some centres not stated)", "label 0"),
    ("C=CCNC(=O)[C@H]1[C@@H]2C(=O)O[C@@H](c3ccccc3)[C@@H](c3ccccc3)N2[C@@H](c2ccc(OCCO)cc2)[C@]12C(=O)Nc1ccccc12", "label 1"),
    ("CCOC(=O)C[C@H]1[C@H](OC(=O)c2cc3ccccc3oc2=O)[C@@H](NC(=O)CC(C)C)c2cc(OCCCO)ccc2N1C(=O)Cc1ccc(OC)cc1", "label 0"),
    ("COC(=O)C(CC#Cc1ccc2c(c1)[C@]1(C(=O)N2)[C@H](C(=O)NC[C@H](O)c2ccccc2)[C@H]2C(=O)O[C@H](c3ccccc3)[C@H](c3ccccc3)N2[C@@H]1c1ccccc1OCCO)C(=O)OC", "label 0"),
    ("COC(=O)[C@@]1(Cc2ccccc2)[C@H]2c3cc(C(=O)N4CCCC4)n(Cc4ccc(OC)c(OC)c4)c3C[C@H]2CN1C(=O)c1ccccc1", "label 1"),
    ("CCCN1C(=O)[C@]2(CCC(=O)OC(C)(C)C)N=C(c3ccc(OCCCO)cc3)O[C@@H]2c2ccccc21", "label 1"),
    ("C=CCOC(=O)[C@@H]1[C@H]2C(=O)O[C@H](c3ccccc3)[C@H](c3ccccc3)N2[C@H](c2ccc(OCCOC(=O)[C@H]3C[C@H]4C(=O)N5CCC[C@H]5C(=O)N4[C@H]3c3cccc(OCCO)c3)cc2)[C@@]12C(=O)Nc1ccc(I)cc12", "label 1"),
    ("CCOC(=O)C[C@H]1[C@H](OC(=O)c2ccccc2-c2ccccc2)[C@@H](NC(=O)c2ccc3ccccc3c2)c2cc(OCCCO)ccc2N1C(=O)Cc1ccc(OC)cc1", "label 1"),
    ("N#Cc1ccc(C(O)C2C=CC3C(=O)NC(=O)C3N2Nc2ccc(Cl)cc2Cl)cc1 (configuration not stated)", "label 1"),
    ("COCCOC(=O)N1C(=O)[C@@]2(c3cc(C#Cc4ccc(OC)cc4)ccc31)[C@H](c1ccc(OCCO)cc1)N1[C@H](c3ccccc3)[C@H](c3ccccc3)OC(=O)[C@H]1[C@@H]2C(=O)NC[C@H](O)c1ccccc1", "label 1"),
    ("O=C1C2C=CC(C(O)C3CCCCC3)N(n3cnnc3)C2C(=O)N1Cc1ccccc1 (configuration not stated)", "label 1"),
]

###

Catalogue of composite z-score values
# Test system: Sam68 (KHDRBS1)
# Method description: compounds binding KHDRBS1 protein – biochemical, small-molecule microarray, 635 nm fluorescence, primary screen (AID 1125);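 further: score merges 667 nm channel intensity with signal to noise over triplicate slides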
# Condition info: higher = more signal
Readout kind: composite z-score

# Molecule, Result
records = [
    ("C=CCOC(=O)[C@@H]1[C@H]2C(=O)O[C@H](c3ccccc3)[C@H](c3ccccc3)N2[C@H](c2ccc(OCCOC(=O)[C@H]3C[C@H]4C(=O)N5CCC[C@H]5C(=O)N4[C@H]3c3cccc(OCCO)c3)cc2)[C@@]12C(=O)Nc1ccc(I)cc12", 1.3),
    ("CCCCN1CC=CC23O[C@@H]4/C=C\\CCCOC(=O)C4[C@H]2C(=O)N(C(CO)C(C)C)[C@@H]3C1=O (stereo partly drawn)", 0.239),
    ("O=C1C2C=CC(C(O)c3ccc([N+](=O)[O-])cc3)N(Nc3ccccc3F)C2C(=O)N1c1ccccc1 (stereo not drawn)", 0.808),
    ("COCCn1c(C(=O)N(C)C)cc2c1C[C@H]1CN(C(=O)c3ccccc3)[C@@](Cc3ccc(OC)cc3)(C(=O)OC)[C@@H]21", 0.914),
    ("[N-]=[N+]=Nc1ccccc1C[C@]1(C(=O)N2CCOCC2)N=C(c2ccc(OCCCO)cc2)O[C@H]1c1ccccc1N=[N+]=[N-]", 1.28),
    ("CCOC(=O)c1cn(C[C@H](Cc2ccccc2)NC(=O)N[C@H](CO)CCc2oc(C(C)=O)c(C(=O)OC)c2C(=O)OC)nn1", 1.3),
    ("CC(C)(C)OC(=O)CC[C@@]1(C(=O)NCCN2CCOCC2)N=C(c2ccc(OCCCO)cc2)O[C@@H]1c1ccccc1CN=[N+]=[N-]", 0.696),
    ("COc1ccc([Si](C)(C)[C@@H]2[C@@H](CC(=O)N(CCO)Cc3ccccc3)O[C@]3(C(=O)N(Cc4ccc(I)cc4)c4ccccc43)[C@H]2C)cc1", 0.793),
    ("C=CC[C@@]1(C(=O)N(C)C)N=C(c2ccc(OCCCO)cc2)O[C@@H]1c1ccccc1CN=[N+]=[N-]", 1.33),
    ("O=C1[C@H]2C=C(I)[C@H](C[C@@H]2c2ccccc2)[C@@]12CO2", 0.0643),
    ("C=CCNC(=O)[C@H]1[C@@H]2C(=O)O[C@@H](c3ccccc3)[C@@H](c3ccccc3)N2[C@@H](c2ccccc2OCCO)[C@]12C(=O)N(C(=O)OCCOC)c1ccc(C#Cc3ccc(OC)cc3)cc12", 1.24),
    ("C=CCOC(=O)[C@H]1[C@@H]2C(=O)O[C@@H](c3ccccc3)[C@@H](c3ccccc3)N2[C@@H](c2ccc(OCCOC(=O)[C@H]3C[C@H]4C(=O)N[C@@H](CC(C)C)C(=O)N4[C@H]3c3ccc(O)cc3)cc2)[C@]12C(=O)Nc1ccccc12", 1.31),
    ("C=CCC(OC(C)=O)[C@@H]1[C@@H](N(Cc2cc3ccccc3o2)C(=O)Cc2ccc(OC)cc2)c2cc(OCCCO)ccc2N1C(=O)c1ccc2ccccc2n1 (stereo partly drawn)", -0.11),
]

Values were extracted from PubChem BioAssay.
